- Protocol: Stability evaluation of solution formulation (Experimental Example 2)
- Type: physicochemical
- Condition info: solution formulation, pH3.0, 4 week
Recorded metric: Production rate of Alvocidib (%)
Output spec: scalar in %, unitless text.

Some molecules with recorded Production rate of Alvocidib:
[
  {
    "Molecule": "CCCN(C[C@@H]1CCCCN1)C(=O)Oc1cc(O)c2c(=O)cc(-c3ccccc3Cl)oc2c1[C@H]1CCN(C)C[C@H]1O [Example 5]",
    "Observed value": 0.3
  },
  {
    "Molecule": "CN1CC[C@H](c2c(OC(=O)N(C)CCN)cc(O)c3c(=O)cc(-c4ccccc4Cl)oc23)[C@H](O)C1 [Comparative Example 13, reference compound]",
    "Observed value": 0.6
  },
  {
    "Molecule": "CCN(C[C@@H]1CCCCN1)C(=O)Oc1cc(O)c2c(=O)cc(-c3ccccc3Cl)oc2c1[C@H]1CCN(C)C[C@H]1O [Example 1, ditrifluoroacetate]",
    "Observed value": 0.1
  }
]

Quick one: Production rate of Alvocidib for CCCN(C[C@H]1CCCCN1)C(=O)Oc1cc(O)c2c(=O)cc(-c3ccccc3Cl)oc2c1[C@H]1CCN(C)C[C@H]1O [Example 6] ?
0.6

Quick one: Production rate of Alvocidib for CCN(C[C@H]1CCCCN1)C(=O)Oc1cc(O)c2c(=O)cc(-c3ccccc3Cl)oc2c1[C@H]1CCN(C)C[C@H]1O [Example 2] ?
0.1

Quick one: Production rate of Alvocidib for CNCCN(C)C(=O)Oc1cc(O)c2c(=O)cc(-c3ccccc3Cl)oc2c1[C@H]1CCN(C)C[C@H]1O [Comparative Example 14, reference compound] ?
6.1

====

- Protocol: Evaluation of conversion rate to active form in buffer solution (Experimental Example 1)
- Format: physicochemical
- Condition info: pH5.5, 1 hr, 37° C., 25 umol/L in buffer solution
Counter-ions that a name gives are not always drawn.
Doc: threshold 3% (exclusive). Items with Production rate of Alvocidib beneath it return yes (1); others return no (0).

Reference set (6 entries):
[
  {
    "Compound": "CCN(C[C@H]1CCCCN1)C(=O)Oc1cc(O)c2c(=O)cc(-c3ccccc3Cl)oc2c1[C@H]1CCN(C)C[C@H]1O [Example 2]",
    "Label value": "yes (1)"
  },
  {
    "Compound": "CCNC(=O)Oc1cc(O)c2c(=O)cc(-c3ccccc3Cl)oc2c1[C@H]1CCN(C)C[C@H]1O [Comparative Example 1, reference compound]",
    "Label value": "no (0)"
  },
  {
    "Compound": "COCCN(CC1CCCCN1)C(=O)Oc1cc(O)c2c(=O)cc(-c3ccccc3Cl)oc2c1[C@H]1CCN(C)C[C@H]1O (stereo partly shown) [Example 12]",
    "Label value": "no (0)"
  },
  {
    "Compound": "CCCN(CC1CCCCN1)C(=O)Oc1cc(O)c2c(=O)cc(-c3ccccc3Cl)oc2c1[C@H]1CCN(C)C[C@H]1O (stereo partly shown) [Example 9]",
    "Label value": "no (0)"
  },
  {
    "Compound": "CCN(CC1CCCCN1)C(=O)Oc1cc(O)c2c(=O)cc(-c3ccccc3Cl)oc2c1[C@H]1CCN(C)C[C@H]1O (stereo partly shown) [Example 7, dihydrochloride]",
    "Label value": "yes (1)"
  },
  {
    "Compound": "CCN(C[C@@H]1CCCCN1)C(=O)Oc1cc(O)c2c(=O)cc(-c3ccccc3Cl)oc2c1[C@H]1CCN(C)C[C@H]1O [Example 1, ditrifluoroacetate]",
    "Label value": "yes (1)"
  }
]

Is it true that Production rate of Alvocidib reported for CN1CC[C@H](c2c(OC(=O)N(C)C[C@H]3CCCCN3)cc(O)c3c(=O)cc(-c4ccccc4Cl)oc23)[C@H](O)C1 [Example 4] is less than 3%?
yes (1)

Is it true that Production rate of Alvocidib reported for CN1CC[C@H](c2c(OC(=O)N(CCC(F)(F)F)CC3CCCCN3)cc(O)c3c(=O)cc(-c4ccccc4Cl)oc23)[C@H](O)C1 (stereo partly shown) [Example 13] is less than 3%?
no (0)

Is it true that Production rate of Alvocidib reported for CN1CC[C@H](c2c(OC(=O)N(Cc3ccccc3)CC3CCCCN3)cc(O)c3c(=O)cc(-c4ccccc4Cl)oc23)[C@H](O)C1 (stereo partly shown) [Example 15] is less than 3%?
no (0)

Is it true that Production rate of Alvocidib reported for CCCN(C[C@@H]1CCCCN1)C(=O)Oc1cc(O)c2c(=O)cc(-c3ccccc3Cl)oc2c1[C@H]1CCN(C)C[C@H]1O [Example 5] is less than 3%?
yes (1)
